tested on: Esophageal squamous cell carcinoma cell line HKESC-1; experiment: MTS activity assay, HKESC-1; format: cell-based; settings: 50 μg/mL, 48 hours, relative to control
PARAMETER MEASURED: Relative MTS Activity at 50 μg/mL Concentration, HKESC-1
# respond with the number and nothing more

# example entries with known answers
Tell me the measured Relative MTS Activity at 50 μg/mL Concentration, HKESC-1 of COc1cccc(COc2cccc3c2NC(C)CC3)c1 (centres unmarked) [Compound 12b] , please.
0.682

Can you look up the measured Relative MTS Activity at 50 μg/mL Concentration, HKESC-1 of COc1cccc(COc2cccc3ccc(C)nc23)c1 [Compound 12a, 8-(3-methoxybenzyloxy)-2-methylquinoline] for me?
0.535

New cases:
What value of Relative MTS Activity at 50 μg/mL Concentration, HKESC-1 has been recorded for this entry: COc1ccc(COc2cccc3ccc(C)nc23)cc1 [Compound 11a, 8-(4-methoxybenzyloxy)-2-methylquinoline]
0.817
